test system: Sam68 (KHDRBS1); assay: Sam68 small-molecule binders, primary screen, biochemical, small-molecule microarray, 635 nm fluorescence (AID 1125); details: small-molecule microarray binding, higher = more signal;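 further: score merges 667 nm channel intensity with signal to noise over triplicate slides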
measured-metric: composite z-score
Output: the number by itself.

# annotated cases, reported composite z-score shown
compound	target-desc	composite z-score
C=CCOC(=O)[C@@H]1[C@H]2C(=O)O[C@H](c3ccccc3)[C@H](c3ccccc3)N2[C@H](c2ccc(OCCOC(=O)[C@@H]3C[C@@H]4C(=O)N5CCC[C@H]5C(=O)N4[C@@H]3c3ccc(O)cc3)cc2)[C@@]12C(=O)Nc1ccc(I)cc12	Sam68 (KHDRBS1)	1.19
CN1C(=O)C2C=CC(C(O)c3cccs3)N(Nc3ccccc3)C2C1=O (centres undefined)	Sam68 (KHDRBS1)	0.186
COc1ccc(CCNC(=O)[C@@H]2c3ccccc3C(=O)N(C3Cc4ccccc4C3)[C@H]2c2ccc(CO)cc2)cc1	Sam68 (KHDRBS1)	0.73

// below: composite z-score requested for another compound
Identify the reported composite z-score for the following entry. `CC(C)N1C(=O)[C@@]2(Cc3ccccc31)c1ccccc1C(=O)N(C1CCCCC1)[C@H]2c1ccc(CO)cc1`
0.819

---

List of composite z-score values.
test: anti-His antibody binders, primary screen, artefact control for SMM control protein annotation, biochemical, small-molecule microarray, 635 nm fluorescence (AID 1128); details: anti-His Alexa647 antibody binding, higher = more signal;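 further: score merges feature fluorescence with signal-to-noise for each printed compound spot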
Output: the number by itself.

# annotated cases, reported composite z-score shown
compound	composite z-score
COc1cc2c(cc1O)C=[N+](Cc1cccc(OC(F)(F)F)c1)CC2	-0.131
CCCCCC1=C2CNC(CCC)(C(=O)OC)C=C2C(C)C1=O (configuration not stated)	-0.252

Identify the reported composite z-score for the following entry. `C=C(COC)/C(=C/C[C@H](OC(=O)c1ccncc1)c1ccc(OCCO)cc1)c1cnc2ccccc2c1`
1.96

Identify the reported composite z-score for the following entry. `C=CCOC(=O)[C@@H]1[C@H]2C(=O)O[C@H](c3ccccc3)[C@H](c3ccccc3)N2[C@H](c2ccc(OCCOC(=O)[C@@H]3C[C@@H]4C(=O)N[C@@H](CCCCN(C)C)C(=O)N4[C@@H]3c3ccc(O)cc3)cc2)[C@@]12C(=O)Nc1ccc(I)cc12`
1.13

Identify the reported composite z-score for the following entry. CCOC(=O)C1=CCC(c2ccccc2)N(S(=O)(=O)CC[Si](C)(C)C)C1 (configuration not stated)
0.149

Identify the reported composite z-score for the following entry. `COc1cc2c(cc1OC)CN(C(=O)[C@@H]1[C@H]3C(=O)O[C@H](c4ccccc4)[C@H](c4ccccc4)N3[C@H](c3ccc(O)cc3)[C@@]13C(=O)Nc1ccc(C#CC4(O)CCCCCC4)cc13)CC2`
2.4

Identify the reported composite z-score for the following entry. COc1cc2c(cc1O)C(C1CC1)N(Cc1cc3c(cc1Br)OCO3)CC2 (configuration not stated)
-1.4

Identify the reported composite z-score for the following entry. `COCCOC(=O)N1C(=O)[C@@]2(c3cc(C#CCNC(N)=O)ccc31)[C@H](C(=O)NC[C@H](O)c1ccccc1)[C@H]1C(=O)O[C@H](c3ccccc3)[C@H](c3ccccc3)N1[C@@H]2c1ccccc1OCCO`
1.06

---

target: Torsin-1A-interacting protein 2 (Homo sapiens) (UniProt Q8NFQ8); assay: LULL1 binders on small-molecule microarray, primary screen, cell lysate, human LULL1 lysate, 635/667 nm fluorescence (AID 1092); conditions: hLULL1 lysate binding, 635 nm fluorescence, higher = more signal;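 further: probe is lysate of COS7 cells overexpressing human LULL1; score merges per-feature 667 nm fluorescence with signal-to-noise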
Sequence (Q8NFQ8 whole entry, looked up): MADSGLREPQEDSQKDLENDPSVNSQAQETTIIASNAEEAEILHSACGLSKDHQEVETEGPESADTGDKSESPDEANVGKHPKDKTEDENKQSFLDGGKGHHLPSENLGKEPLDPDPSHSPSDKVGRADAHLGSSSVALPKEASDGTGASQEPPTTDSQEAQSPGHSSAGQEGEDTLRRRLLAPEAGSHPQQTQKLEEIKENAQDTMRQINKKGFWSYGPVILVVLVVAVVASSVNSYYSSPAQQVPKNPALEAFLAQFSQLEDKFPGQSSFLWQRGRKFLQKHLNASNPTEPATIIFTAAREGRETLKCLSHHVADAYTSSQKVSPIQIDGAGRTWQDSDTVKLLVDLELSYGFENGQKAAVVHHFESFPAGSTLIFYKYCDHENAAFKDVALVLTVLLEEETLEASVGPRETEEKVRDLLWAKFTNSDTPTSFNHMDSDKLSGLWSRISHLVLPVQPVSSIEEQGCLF
List of composite z-score values.
Output: the number by itself.

Identify the reported composite z-score for the following entry. O=C1NC(=O)C2C1C=CC(C(O)c1cccc3ccccc13)N2Nc1ccccn1 (configuration not stated)
1.37

Provenance of the data: PubChem BioAssay
